tested.target: T1, G9a and GLP (Homo sapiens, UniProt Q96KQ7+Q9H9B1)
T1 sequence (Q96KQ7 2-1210 limits assumed): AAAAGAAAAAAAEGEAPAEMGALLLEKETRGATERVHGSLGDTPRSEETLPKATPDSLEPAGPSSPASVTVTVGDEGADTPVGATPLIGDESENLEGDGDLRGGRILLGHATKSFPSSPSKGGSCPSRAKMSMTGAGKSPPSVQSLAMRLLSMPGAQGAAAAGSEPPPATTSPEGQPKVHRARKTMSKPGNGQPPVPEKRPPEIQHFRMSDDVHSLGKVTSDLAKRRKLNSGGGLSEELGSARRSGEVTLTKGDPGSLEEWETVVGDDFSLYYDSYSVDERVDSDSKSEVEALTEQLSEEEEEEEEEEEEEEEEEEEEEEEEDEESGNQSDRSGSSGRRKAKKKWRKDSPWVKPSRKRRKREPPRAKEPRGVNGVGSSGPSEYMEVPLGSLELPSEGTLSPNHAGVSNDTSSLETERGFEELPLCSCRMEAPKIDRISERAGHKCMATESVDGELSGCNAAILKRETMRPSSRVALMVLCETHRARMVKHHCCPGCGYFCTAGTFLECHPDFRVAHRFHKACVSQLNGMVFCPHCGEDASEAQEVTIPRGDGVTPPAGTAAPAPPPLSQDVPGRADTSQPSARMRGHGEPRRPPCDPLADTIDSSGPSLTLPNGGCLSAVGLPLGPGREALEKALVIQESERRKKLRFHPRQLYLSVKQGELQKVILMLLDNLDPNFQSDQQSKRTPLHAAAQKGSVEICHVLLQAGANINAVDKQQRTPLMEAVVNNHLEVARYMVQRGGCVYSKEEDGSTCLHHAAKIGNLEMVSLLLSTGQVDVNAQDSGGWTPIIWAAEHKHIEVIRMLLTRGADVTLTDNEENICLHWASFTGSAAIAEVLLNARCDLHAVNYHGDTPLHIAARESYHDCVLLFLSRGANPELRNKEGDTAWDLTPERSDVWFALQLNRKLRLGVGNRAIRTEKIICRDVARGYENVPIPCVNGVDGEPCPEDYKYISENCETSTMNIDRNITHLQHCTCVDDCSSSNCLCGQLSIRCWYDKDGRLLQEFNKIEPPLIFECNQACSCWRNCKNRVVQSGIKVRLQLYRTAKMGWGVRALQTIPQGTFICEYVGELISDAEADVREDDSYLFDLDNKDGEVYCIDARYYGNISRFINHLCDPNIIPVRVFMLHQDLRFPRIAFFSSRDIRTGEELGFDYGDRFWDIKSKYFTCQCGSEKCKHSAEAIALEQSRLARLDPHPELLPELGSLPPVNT
T1 sequence (Q9H9B1 2-1298 limits assumed): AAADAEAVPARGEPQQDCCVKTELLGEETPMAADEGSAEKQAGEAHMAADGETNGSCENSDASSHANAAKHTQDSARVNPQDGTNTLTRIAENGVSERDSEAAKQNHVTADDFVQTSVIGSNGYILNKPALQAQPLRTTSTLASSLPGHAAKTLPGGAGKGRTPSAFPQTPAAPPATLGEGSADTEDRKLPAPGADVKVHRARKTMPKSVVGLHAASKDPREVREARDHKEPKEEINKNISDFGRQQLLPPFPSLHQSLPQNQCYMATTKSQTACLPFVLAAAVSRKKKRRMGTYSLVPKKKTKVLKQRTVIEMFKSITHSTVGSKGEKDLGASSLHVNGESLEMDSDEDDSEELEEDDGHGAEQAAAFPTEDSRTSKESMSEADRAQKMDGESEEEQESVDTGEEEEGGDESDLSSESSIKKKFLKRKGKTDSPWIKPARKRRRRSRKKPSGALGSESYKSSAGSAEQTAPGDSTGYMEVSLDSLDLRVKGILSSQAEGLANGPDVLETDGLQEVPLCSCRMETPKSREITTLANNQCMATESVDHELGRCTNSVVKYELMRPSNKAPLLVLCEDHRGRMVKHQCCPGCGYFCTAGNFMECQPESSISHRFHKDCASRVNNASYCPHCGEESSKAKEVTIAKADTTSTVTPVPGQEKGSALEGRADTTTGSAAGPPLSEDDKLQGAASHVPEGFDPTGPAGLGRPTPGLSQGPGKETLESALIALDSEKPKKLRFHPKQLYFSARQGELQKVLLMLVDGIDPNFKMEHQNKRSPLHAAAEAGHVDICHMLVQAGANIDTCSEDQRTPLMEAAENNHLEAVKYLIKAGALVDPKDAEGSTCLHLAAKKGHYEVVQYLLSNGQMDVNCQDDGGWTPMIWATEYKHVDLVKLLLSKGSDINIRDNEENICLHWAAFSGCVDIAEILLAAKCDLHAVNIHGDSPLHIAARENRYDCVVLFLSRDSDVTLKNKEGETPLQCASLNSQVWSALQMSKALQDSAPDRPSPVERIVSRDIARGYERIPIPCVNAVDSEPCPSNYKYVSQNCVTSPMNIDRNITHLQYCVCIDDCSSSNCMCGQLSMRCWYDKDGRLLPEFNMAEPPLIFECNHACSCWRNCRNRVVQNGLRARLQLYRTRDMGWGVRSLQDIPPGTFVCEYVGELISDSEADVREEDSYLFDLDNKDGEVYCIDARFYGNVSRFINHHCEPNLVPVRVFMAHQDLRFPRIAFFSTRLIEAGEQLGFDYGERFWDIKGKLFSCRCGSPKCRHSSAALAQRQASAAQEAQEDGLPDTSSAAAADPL
method.description: Triple SILAC pull-down after UNC0638 treatment of 293T cells, DMSO/UNC0638 ratio of protein captured by 3×MBT;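 also: mass spectrometry (Q-Exactive) SILAC quantitation, DMSO/UNC0638 ratio computed after subtracting 3×MBTD355N mutant pull-down background, only proteins with at least twofold 3×MBT over mutant signal considered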
Type: cell-based
Parameters: cells were treated for 24 hours with UNC0638 at 2.5 μM or DMSO vehicle control; endogenous in cells; host or cells: HEK 293T
assay.conditions: SILAC ratio DMSO/UNC0638 of protein pulled down with 3xMBT; UNC0638 in light SILAC media
Some molecules, each annotated with its measured Relative to UNC0638 UNC Light.

# molecule, scale.unit, Relative to UNC0638 UNC Light
rows = [
    ("CRKL (protein, UniProt P46109 1-303, looked up) Crk-like protein: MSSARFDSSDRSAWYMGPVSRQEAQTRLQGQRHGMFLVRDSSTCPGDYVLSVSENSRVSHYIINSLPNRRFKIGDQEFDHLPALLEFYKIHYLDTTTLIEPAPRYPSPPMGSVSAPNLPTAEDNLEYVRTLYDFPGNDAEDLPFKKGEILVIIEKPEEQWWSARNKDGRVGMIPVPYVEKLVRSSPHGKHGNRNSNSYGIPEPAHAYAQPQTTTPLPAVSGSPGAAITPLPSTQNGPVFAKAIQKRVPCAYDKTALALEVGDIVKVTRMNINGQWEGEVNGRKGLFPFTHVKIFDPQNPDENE", "log base 2", 0.03),
    ("ALKBH5 (protein, UniProt Q6P6C2 2-394, looked up) RNA demethylase ALKBH5: AAASGYTDLREKLKSMTSRDNYKAGSREAAAAAAAAVAAAAAAAAAAEPYPVSGAKRKYQEDSDPERSDYEEQQLQKEEEARKVKSGIRQMRLFSQDECAKIEARIDEVVSRAEKGLYNEHTVDRAPLRNKYFFGEGYTYGAQLQKRGPGQERLYPPGDVDEIPEWVHQLVIQKLVEHRVIPEGFVNSAVINDYQPGGCIVSHVDPIHIFERPIVSVSFFSDSALCFGCKFQFKPIRVSEPVLSLPVRRGSVTVLSGYAADEITHCIRPQDIKERRAVIILRKTRLDAPRLETKSLSSSVLPPSYASDRLSGNNRDPALKPKRSHRKADPDAAHRPRILEMDKEENRRSVLLPTHRRRGSFSSENYWRKSYESSEDCSEAAGSPARKVKMRRH", "log base 2", "−0.01"),
]
